# Test Description: ATG_Ets_CIS: Attagene CIS-FACTORIAL HepG2 Assay for human Erythroblast Transformation Specific (ETS) (AID 2282941)
# Measurement Parameters: HepG2 ETS cis-reporter transcription, actives raise or lower the signal
Activity calls are given as the source filed them. The calls were made as follows: active = hit-call score of the fitted dose curve at least 0.9, where 1 is the maximum; inactive = score below 0.9.
Outcomes: Yes for active, No for inactive

>>> assigned_class("CNC(=O)CSP(=S)(OC)OC")
"No"
>>> assigned_class("O=C(Nc1ccccc1)Nc1cnns1")
"No"
>>> assigned_class("COP(=O)(OC)OC=C(Cl)Cl")
"No"
>>> assigned_class("CCN(CC)C(=O)SCc1ccc(Cl)cc1")
"No"
>>> assigned_class("CCC(C)(C)C(=O)OC1=C(c2ccc(Cl)cc2Cl)C(=O)OC12CCCCC2")
"Yes"
>>> assigned_class("COc1cc(OC)nc(NC(=O)NS(=O)(=O)c2cc(NC=O)ccc2C(=O)N(C)C)n1")
"No"

Source listed as PubChem BioAssay (EPA / NIEHS).
